ASSAYED SYSTEM: Cytochrome P450 2C9 (Homo sapiens)
ASSAY NOTES: Cytochrome P450 family 2 subfamily C member 9 (CYP2C9) small molecule antagonists: luciferase biochemical (cell-free) qHTS assay (AID 1645842); note: nearly all actives have a fitted effect of over 55% in size
MEASUREMENT CONDITIONS: P450-Glo CYP2C9 enzyme assay, luciferin luminescence; series mostly up to 57.4 µM
Source text: National Center for Advancing Translational Sciences [NCATS] Assay Overview: Cytochrome P450 (CYP) enzymes are membrane-bound hemeproteins that play a key role in metabolism of drugs and xenobiotics. Assaying the effect of chemicals on CYP isozymes is useful to minimize the adverse drug reactions and toxicities in drug development process. […] The luciferin products formed are detected with a luciferin detection reagent, and the amount of light produced is proportional to CYP activity. […]
Inconclusive results are not listed. Activity calls are given as the source filed them. Calls come from the whole dose curve; as a rule, active = well fitted inhibition curve with a large enough effect in the repeat runs; inconclusive = weak or mixed curves; inactive = no such curve, though single readings can be large or run the other way.
Outcomes: 1 = active, 0 = inactive

- COMPOUND: "CC(=O)Oc1ccccc1C(=O)Nc1ncc([N+](=O)[O-])s1"
  CLASS: 1
- COMPOUND: "O=c1cc(O)c(Cl)c[nH]1"
  CLASS: 0
- COMPOUND: "CO[C@@H]1[C@@H](OC(N)=O)[C@@H](O)[C@H](Oc2ccc3c(O)c(NC(=O)c4ccc(O)c(CC=C(C)C)c4)c(=O)oc3c2C)OC1(C)C"
  CLASS: 1
- COMPOUND: "CNC(=O)c1cc(Oc2ccc(NC(=O)Nc3ccc(Cl)c(C(F)(F)F)c3)cc2)ccn1"
  CLASS: 1
- COMPOUND: "COC(=O)Nc1nc2ccc(S(=O)c3ccccc3)cc2[nH]1 (stereo not drawn)"
  CLASS: 0
- COMPOUND: "CC(C(=O)O)c1ccc2c(c1)CC(=O)c1ccccc1S2 (stereo not drawn)"
  CLASS: 0
- COMPOUND: "CNC1CCCN(c2c(F)cc3c(=O)c(C(=O)O)cn(C4CC4)c3c2OC)C1 (stereo not drawn)"
  CLASS: 0
- COMPOUND: "CCc1c2c(nc3ccc(OC(=O)N4CCC(N5CCCCC5)CC4)cc13)-c1cc3c(c(=O)n1C2)COC(=O)[C@]3(O)CC"
  CLASS: 0
- COMPOUND: "C#CCN[C@@H]1CCc2ccccc21"
  CLASS: 0
- COMPOUND: "CN1CCCC(n2nc(Cc3ccc(Cl)cc3)c3ccccc3c2=O)CC1 (stereo not drawn)"
  CLASS: 0
- COMPOUND: "CC[C@H](NC(C)C)[C@H](O)c1ccc(O)c2[nH]c(=O)ccc12"
  CLASS: 0
- COMPOUND: "CC(C)Cn1cnc2c(N)nc3ccccc3c21"
  CLASS: 0
- COMPOUND: "COC(=O)Nc1nc2ccc(C(=O)c3ccccc3)cc2[nH]1"
  CLASS: 0
- COMPOUND: "CC(C)(C)C(=O)OCOP(=O)(COCCn1cnc2c(N)ncnc21)OCOC(=O)C(C)(C)C"
  CLASS: 0
- COMPOUND: "NC(=O)c1cccnc1"
  CLASS: 0
- COMPOUND: "COc1ncnc(NS(=O)(=O)c2ccc(N)cc2)c1OC"
  CLASS: 0
- COMPOUND: "Nc1[nH]c(=O)ncc1F"
  CLASS: 0
- COMPOUND: "CCN[C@H]1C[C@H](C)S(=O)(=O)c2sc(S(N)(=O)=O)cc21"
  CLASS: 0
- COMPOUND: "Cc1cccc(N(C)C(=S)Oc2ccc3ccccc3c2)c1"
  CLASS: 1
- COMPOUND: "NS(=O)(=O)c1cc2c(cc1Cl)NC(C(Cl)Cl)NS2(=O)=O (stereo not drawn)"
  CLASS: 0
- COMPOUND: "COC(c1ccccc1)(c1ccccc1)[C@H](Oc1nc(C)cc(C)n1)C(=O)O"
  CLASS: 0
- COMPOUND: "NC1(c2ccc(-c3nc4ccn5c(=O)[nH]nc5c4cc3-c3ccccc3)cc2)CCC1"
  CLASS: 0
- COMPOUND: "NC(=O)N1c2ccccc2CC(=O)c2ccccc21"
  CLASS: 0
